Data provenance is ChEMBL document CHEMBL3797146.

ASSAY SUMMARY: Stability in simulated gastric fluid assessed as parent compound remaining in absence of pepsin after 2 hrs
Assay type: ADME, tissue-based, Stomach
CONDITION PARAMETERS: simulated gastric fluid without pepsin; read-out: Stability
MEASUREMENT KIND: remaining at 2 h

input: Param item = `N#Cc1ccc(-c2ccc(O[C@H]3O[C@H](CO)[C@@H](O)[C@H](O)[C@@H]3OP(=O)([O-])[O-])c(Cl)c2)cc1.[Na+].[Na+]` ; retrieve measured remaining at 2 h.
output: > 80%

input: Which remaining at 2 h value belongs to `N#Cc1ccc(-c2ccc(O[C@H]3O[C@H](CO)[C@@H](OP(=O)([O-])[O-])[C@H](O)[C@@H]3O)c(Cl)c2)cc1.[Na+].[Na+]` ?
output: > 80%

input: Looking for the measured remaining at 2 h of `N#Cc1ccc(-c2ccc(O[C@H]3O[C@H](COP(=O)([O-])[O-])[C@@H](O)[C@H](O)[C@@H]3O)c(Cl)c2)cc1.[Na+].[Na+]` , can you help?
output: > 80%

====

ASSAY SUMMARY: Stability in water assessed as parent compound remaining in absence of pancreatin after 2 hrs
Assay type: physicochemical
CONDITION PARAMETERS: read-out: Stability
MEASUREMENT KIND: remaining at 2 h

input: What measured remaining at 2 h goes with `N#Cc1ccc(-c2ccc(O[C@H]3O[C@H](CO)[C@@H](O)[C@H](O)[C@@H]3OP(=O)([O-])[O-])c(Cl)c2)cc1.[Na+].[Na+]` ?
output: > 80%

input: Entry `N#Cc1ccc(-c2ccc(O[C@H]3O[C@H](COP(=O)([O-])[O-])[C@@H](O)[C@H](O)[C@@H]3O)c(Cl)c2)cc1.[Na+].[Na+]` has what remaining at 2 h?
output: > 80%

input: Using the record for `N#Cc1ccc(-c2ccc(O[C@H]3O[C@H](CO)[C@@H](OP(=O)([O-])[O-])[C@H](O)[C@@H]3O)c(Cl)c2)cc1.[Na+].[Na+]` , report its remaining at 2 h.
output: > 80%

====

ASSAY SUMMARY: Stability in fed state simulated gastric fluid assessed as parent compound remaining in absence of pancreatin after 2 hrs
Format: ADME, tissue-based, Stomach
CONDITION PARAMETERS: fed state simulated gastric fluid without pancreatin; read-out: Stability
Please respond with reported remaining at 2 h for every item in the list.

input: Would you kindly share the measured remaining at 2 h for `N#Cc1ccc(-c2ccc(O[C@H]3O[C@H](CO)[C@@H](OP(=O)([O-])[O-])[C@H](O)[C@@H]3O)c(Cl)c2)cc1.[Na+].[Na+]` ?
output: > 80%

input: Field request: remaining at 2 h | item: `N#Cc1ccc(-c2ccc(O[C@H]3O[C@H](COP(=O)([O-])[O-])[C@@H](O)[C@H](O)[C@@H]3O)c(Cl)c2)cc1.[Na+].[Na+]`
output: > 80%

input: Please report the recorded remaining at 2 h for `N#Cc1ccc(-c2ccc(O[C@H]3O[C@H](CO)[C@@H](O)[C@H](O)[C@@H]3OP(=O)([O-])[O-])c(Cl)c2)cc1.[Na+].[Na+]` .
output: > 80%

====

ASSAY SUMMARY: Thermodynamic solubility of the compound in 50 mM pH 6.5 phosphate buffer by LC-MS method
Assay type: physicochemical
CONDITION PARAMETERS: read-out: Therm_solubility
Answer each item with its documented solubility thermodynamic.

input: Find the recorded solubility thermodynamic belonging to `N#Cc1ccc(-c2ccc(O[C@H]3O[C@H](CO)[C@@H](O)[C@H](O)[C@@H]3OP(=O)([O-])[O-])c(Cl)c2)cc1.[Na+].[Na+]` and report it.
output: > 3000 µg/mL

input: Endpoint output: solubility thermodynamic of `N.N.O=P(O)(O)O[C@@H]1[C@@H](Oc2ccc(-c3ccccc3)cc2)O[C@H](CO)[C@@H](O)[C@@H]1O` . Value?
output: > 3000 µg/mL

input: # get_value(readout='solubility thermodynamic', item= `N#Cc1ccc(-c2ccc(O[C@H]3O[C@H](COP(=O)([O-])[O-])[C@@H](O)[C@H](O)[C@@H]3O)c(Cl)c2)cc1.[Na+].[Na+]` )
output: > 3000 µg/mL

input: Would you kindly share the measured solubility thermodynamic for `N#Cc1ccc(-c2ccc(O[C@H]3O[C@H](CO)[C@@H](OP(=O)([O-])[O-])[C@H](O)[C@@H]3O)c(Cl)c2)cc1.[Na+].[Na+]` ?
output: > 3000 µg/mL

input: Which solubility thermodynamic is reported for this molecule? `N.N.O=P(O)(O)OC[C@H]1O[C@H](Oc2ccc(-c3ccccc3)cc2)[C@@H](O)[C@@H](O)[C@@H]1O`
output: > 3000 µg/mL

input: # query: solubility thermodynamic of entry `N#Cc1ccc(-c2ccc(O[C@H]3O[C@H](CO)[C@@H](O)[C@H](OP(=O)([O-])[O-])[C@@H]3O)c(Cl)c2)cc1.[Na+].[Na+]`
output: > 3000 µg/mL

input: Data request, read-out solubility thermodynamic, for `N.N.O=[N+]([O-])c1ccc2c(c1)CCN2c1ccc(O[C@H]2O[C@H](COCOP(=O)(O)O)[C@@H](O)[C@H](O)[C@@H]2O)cc1`
output: > 3000 µg/mL

input: Which solubility thermodynamic reading was recorded for the molecule `N.N.O=P(O)(O)O[C@H]1[C@H](O)[C@H](O)[C@@H](Oc2ccc(-c3ccccc3)cc2)O[C@@H]1CO` ?
output: 2700 µg/mL

input: What value of measured solubility thermodynamic is listed for `N.N.O=P(O)(O)O[C@@H]1[C@H](O)[C@@H](Oc2ccc(-c3ccccc3)cc2)O[C@H](CO)[C@H]1O` ?
output: > 3000 µg/mL

====

ASSAY SUMMARY: Stability in simulated gastric fluid assessed as parent compound remaining in absence of pancreatin after 2 hrs
Type: ADME, tissue-based, Stomach
CONDITION PARAMETERS: simulated gastric fluid without pancreatin; read-out: Stability
MEASUREMENT KIND: remaining at 2 h

input: Can you share its remaining at 2 h? I mean this compound: `N#Cc1ccc(-c2ccc(O[C@H]3O[C@H](CO)[C@@H](OP(=O)([O-])[O-])[C@H](O)[C@@H]3O)c(Cl)c2)cc1.[Na+].[Na+]`
output: > 80%

input: Dear colleague, I am looking for the recorded remaining at 2 h of the following compound: `N#Cc1ccc(-c2ccc(O[C@H]3O[C@H](CO)[C@@H](O)[C@H](O)[C@@H]3OP(=O)([O-])[O-])c(Cl)c2)cc1.[Na+].[Na+]`
output: > 80%

input: Query: remaining at 2 h; subject: `N#Cc1ccc(-c2ccc(O[C@H]3O[C@H](COP(=O)([O-])[O-])[C@@H](O)[C@H](O)[C@@H]3O)c(Cl)c2)cc1.[Na+].[Na+]`
output: > 80%

====

ASSAY SUMMARY: Stability in water assessed as parent compound remaining in absence of pepsin after 2 hrs
Type: physicochemical
CONDITION PARAMETERS: read-out: Stability
MEASUREMENT KIND: remaining at 2 h

input: Entry `N#Cc1ccc(-c2ccc(O[C@H]3O[C@H](CO)[C@@H](O)[C@H](O)[C@@H]3OP(=O)([O-])[O-])c(Cl)c2)cc1.[Na+].[Na+]` has what remaining at 2 h?
output: > 80%

input: Could you tell me which remaining at 2 h is on file for `N#Cc1ccc(-c2ccc(O[C@H]3O[C@H](CO)[C@@H](OP(=O)([O-])[O-])[C@H](O)[C@@H]3O)c(Cl)c2)cc1.[Na+].[Na+]` ?
output: > 80%

input: Endpoint output: remaining at 2 h of `N#Cc1ccc(-c2ccc(O[C@H]3O[C@H](COP(=O)([O-])[O-])[C@@H](O)[C@H](O)[C@@H]3O)c(Cl)c2)cc1.[Na+].[Na+]` . Value?
output: > 80%

====

ASSAY SUMMARY: Stability in fed state simulated gastric fluid assessed as parent compound remaining in absence of pepsin after 2 hrs
Format: ADME, tissue-based, Stomach
CONDITION PARAMETERS: fed state simulated gastric fluid without pepsin; read-out: Stability
MEASUREMENT KIND: remaining at 2 h

input: remaining at 2 h lookup needed for `N#Cc1ccc(-c2ccc(O[C@H]3O[C@H](CO)[C@@H](O)[C@H](O)[C@@H]3OP(=O)([O-])[O-])c(Cl)c2)cc1.[Na+].[Na+]` , thanks.
output: > 80%

input: Would you mind telling me what remaining at 2 h value was observed for `N#Cc1ccc(-c2ccc(O[C@H]3O[C@H](CO)[C@@H](OP(=O)([O-])[O-])[C@H](O)[C@@H]3O)c(Cl)c2)cc1.[Na+].[Na+]` ?
output: > 80%

input: Please look up its remaining at 2 h: `N#Cc1ccc(-c2ccc(O[C@H]3O[C@H](COP(=O)([O-])[O-])[C@@H](O)[C@H](O)[C@@H]3O)c(Cl)c2)cc1.[Na+].[Na+]`
output: > 80%
